Data origin: patent US20150344407A1

Test system: Hec50 cells
assay-comment: Proliferation assay, endometrial cancer cell line Hec50
Format: cell-based
stated-conditions: 72 h, CyQUANT; Hec50 expresses oncogenic mutant K-Ras
pEC50: −log10 of the molar value.
assay-readout: pEC50

Some solved entries appear below for comparison.
COC(=O)[C@H](NCC=C(c1ccccc1)c1ccccc1)c1ccccc1 : 6.37
C(CN(CC=C(c1ccccc1)c1ccccc1)[C@@H]1CCc2ccccc21)=C(c1ccccc1)c1ccccc1 : 6.39

(P) COc1ccc([C@@H](C)N(CC=C(c2ccccc2)c2ccccc2)CC=C(c2ccccc2)c2ccccc2)cc1
(Q) C[C@H](c1cccc(Cl)c1)N(CC=C(c1ccccc1)c1ccccc1)CC=C(c1ccccc1)c1ccccc1
// which entry has the larger pEC50 value, P or Q ? Indicate your choice by writing its label. P

###

Tested on: Hec-1B cells
assay-comment: Proliferation assay, endometrial cancer cell line Hec-1B
Format: cell-based
stated-conditions: Homo sapiens; 72 h, CyQUANT; Hec-1B expresses oncogenic mutant K-Ras; ND = EC50 could not be determined within the dose range tested
pEC50: −log10 of the molar value.
assay-readout: pEC50

(I) C(CN(CC=C(c1ccccc1)c1ccccc1)[C@@H]1CCc2ccccc21)=C(c1ccccc1)c1ccccc1
(II) COC(=O)[C@H](NCC=C(c1ccccc1)c1ccccc1)c1ccccc1
(III) C[C@H](c1cccc(Cl)c1)N(CC=C(c1ccccc1)c1ccccc1)CC=C(c1ccccc1)c1ccccc1
Order the 3 listed items from lowest to highest according to pEC50. # the answer lists labels in the order requested III, II, I
(III: 4.97, II: 6.28, I: 6.48)

###

tested-target: GFP-tagged K-rasG12V (oncogenic K-ras) in MDCK cells (Homo sapiens, UniProt P01116, G12V)
Construct: mGFP-tagged full length oncogenic mutant K-Ras (GFP-K-RasG12V); expressed in transfected cells
Sequence (P01116 1-188 isoform P01116-2 G12V): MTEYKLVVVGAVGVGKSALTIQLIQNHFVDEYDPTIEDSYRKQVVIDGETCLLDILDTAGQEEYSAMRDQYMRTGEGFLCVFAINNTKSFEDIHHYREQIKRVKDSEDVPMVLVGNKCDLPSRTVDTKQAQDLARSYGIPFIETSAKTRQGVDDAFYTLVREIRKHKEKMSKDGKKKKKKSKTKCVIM
assay-comment: K-ras mislocalization, confocal fluorescence microscopy with densitometric analysis
Type: cell-based, canine
stated-conditions: 4 μM compound, 48 hours, MDCK cells stably expressing GFP-tagged K-rasG12V; normalized to vehicle-treated control; read-out: % Mislocalization of K-ras when treated with 4 μM compound
assay-readout: inhibition at 4 µM (%)

C[C@H](NC(=O)CC(c1ccccc1)c1ccccc1)c1ccccc1 : 9.73

(I) CC(OCCC(c1ccccc1)c1ccccc1)c1ccccc1 (stereo not drawn)
(II) CC(C)=CCC/C(C)=C/CN[C@H](C)c1ccccc1
(III) CC(C)=CCC/C(C)=C/CO[C@H](C)c1ccccc1
Ascending sort, inhibition at 4 µM. Lab note: record answer as labels in requested order. II, III, I

(1) CC(CNCC=C(c1ccccc1)c1ccccc1)c1ccccc1 (stereo not drawn)
(2) C[C@@H](OC/C=C/c1ccccc1)c1ccccc1 [Compound 24, (R,E)-(1-(cinnamyloxy)ethyl)benzene]
(3) C[C@@H](NCC=C(c1ccccc1)c1ccccc1)c1ccc(Br)cc1
Would you mind ranking these compounds by ascending inhibition at 4 µM? Use the labels to give the requested order. 2, 1, 3

(A) C[C@@H](NC/C=C(/c1ccccc1)c1ccc([N+](=O)[O-])cc1)c1ccccc1
(B) COC(=O)[C@@H](NCC=C(c1ccccc1)c1ccccc1)c1ccccc1
Compare reported inhibition at 4 µM values for A and B . Which is lower? Returns: label corresponding to the selected item. A
(A: 20.1%, B: 30.1%)

###

System: Hec-1A cells
assay-comment: Proliferation assay, endometrial cancer cell line Hec-1A
Assay type: cell-based
stated-conditions: Homo sapiens; 72 h, CyQUANT; Hec-1A expresses oncogenic mutant K-Ras
Experimental: FIG. 4A-4E—Concentration-response curves of 42, 68, 70, 72 and 73 on proliferation of five endometrial cancer cell lines. KLE and ESS-1 express wild type K-Ras and Hec-1A, Hec-1B and Hec50 express oncogenic mutant K-Ras. […] ND means that the EC50 value could not be determined within the dose range tested. […] Proliferation Assay: Cells were seeded in 96-well plates. […] Cell numbers were quantified using the CyQUANT® Cell Proliferation Assay Kit (Life Technologies), according to the manufacturer's protocol. […]
pEC50: −log10 of the molar value.
assay-readout: pEC50

(1) C(CN(CC=C(c1ccccc1)c1ccccc1)[C@@H]1CCc2ccccc21)=C(c1ccccc1)c1ccccc1
(2) COc1ccc([C@@H](C)N(CC=C(c2ccccc2)c2ccccc2)CC=C(c2ccccc2)c2ccccc2)cc1
(3) C[C@H](c1cccc(Cl)c1)N(CC=C(c1ccccc1)c1ccccc1)CC=C(c1ccccc1)c1ccccc1
(4) COC(=O)[C@H](NCC=C(c1ccccc1)c1ccccc1)c1ccccc1
Give the descending pEC50 ranking for the 4 compounds listed above. In plain terms: list the labels in the order you were asked to. 4, 1, 3, 2
(4: 8.13, 1: 7.71, 3: 7.42, 2: 6.68)

###

tested-target: GFP-tagged K-rasG12V (oncogenic K-ras) in MDCK cells (Homo sapiens, UniProt P01116, G12V)
Construct: mGFP-tagged full length oncogenic mutant K-Ras (GFP-K-RasG12V); expressed in transfected cells
assay-comment: K-ras mislocalization, confocal fluorescence microscopy with densitometric analysis
Assay type: cell-based, canine
stated-conditions: 4 μM compound, 48 hours, MDCK cells stably expressing GFP-tagged K-rasG12V; normalized to vehicle-treated control; read-out: % Mislocalization of K-ras when treated with 4 μM compound
Counter-ions that a name gives are not always drawn.
assay-readout: inhibition at 4 µM (%)

(I) CC(NC(=O)CCc1ccccc1)c1ccccc1 (stereo not drawn) [Compound 06, 3-phenyl-N-(1-phenylethyl)propanamide]
(II) C[C@@H](OCC=C(c1ccccc1)c1ccccc1)c1ccccc1
(III) C[C@@H](NC/C=C/c1ccccc1)c1ccccc1
List the compounds shown above again, sorted by falling inhibition at 4 µM values. Provide the labels, sequenced as the question asks. I, III, II

(1) C[C@@H](NC/C=C/c1ccccc1)c1cccc2ccccc12
(2) CC(NC(=O)CC(c1ccccc1)c1ccccc1)c1cccs1 (stereo not drawn)
Looking only at measured inhibition at 4 µM, which entry is lower, 1 or 2 ? Which one? Tell me its label. 1

(A) CC(NCC=C(c1ccccc1)c1ccccc1)c1ccccc1 (stereo not drawn) [Compound 12, hydrochloride]
(B) C[C@@H](NC/C=C/c1ccc2ccccc2c1)c1ccccc1
(C) C[C@@H](NC/C=C/c1ccccc1)c1ccc2ccccc2c1
Write the entries in order, lowest recorded inhibition at 4 µM first. Reply with the labels, ordered as the question asks. B, C, A
(B: 1.53%, C: 26.1%, A: 37.7%)

###

tested-target: GFP-tagged K-rasG12V (oncogenic K-ras) in MDCK cells (Homo sapiens, UniProt P01116, G12V)
Construct: mGFP-tagged full length oncogenic mutant K-Ras (GFP-K-RasG12V); expressed in transfected cells
assay-comment: K-ras mislocalization, confocal fluorescence microscopy with densitometric analysis
Type: cell-based, canine
stated-conditions: 4 μM compound, 48 hours, MDCK cells stably expressing GFP-tagged K-rasG12V; normalized to vehicle-treated control; read-out: % Mislocalization of K-ras when treated with 4 μM compound
Structures can show the parent of a compound that is named as a salt.
assay-readout: inhibition at 4 µM (%)

Example results:
C[C@@H](NCC=C(c1ccccc1)c1ccccc1)c1ccc(N)cc1 : 28.2
COC(=O)[C@@H](NC/C=C/c1ccccc1)c1ccccc1 : 6.72
C[C@H](OCC=C(c1ccccc1)c1ccccc1)c1ccccc1 : 10.3

(I) CC(NCCC(c1ccccc1)c1ccccc1)c1cccs1 (centres unmarked) [Compound 15, hydrochloride]
(II) C[C@@H](NCC=C1c2ccccc2C=Cc2ccccc21)c1ccc(F)cc1
// pick larger inhibition at 4 µM from pair: I vs II Select an item and report its label. I
(I: 25.1%, II: 5.05%)

###

tested-target: GFP-tagged K-rasG12V (oncogenic K-ras) in MDCK cells (Homo sapiens, UniProt P01116, G12V)
Construct: mGFP-tagged full length oncogenic mutant K-Ras (GFP-K-RasG12V); expressed in transfected cells
assay-comment: K-ras mislocalization, confocal fluorescence microscopy with densitometric analysis
Format: cell-based, canine
stated-conditions: 4 μM compound, 48 hours, MDCK cells stably expressing GFP-tagged K-rasG12V; normalized to vehicle-treated control; read-out: % Mislocalization of K-ras when treated with 4 μM compound
Counter-ions that a name gives are not always drawn.
assay-readout: inhibition at 4 µM (%)

// solved cases for inhibition at 4 µM follow
CC(NCCCc1ccccc1)c1ccccc1 (stereo not drawn) [Compound 11, hydrochloride] : 32.4
CC(C)=CCC/C(C)=C/CC/C(C)=C/CN[C@H](C)c1ccccc1 : 34.9
C[C@@H](NCC=C(c1ccccc1)c1ccccc1)c1ccc(F)cc1 : 50
CC[C@@H](NCC=C(c1ccccc1)c1ccccc1)c1ccccc1 : 37.5
C[C@@H](NCC1CCCCC1)c1ccccc1 : 9.67

(a) C[C@H](NCC=C(c1ccccc1)c1ccccc1)c1ccccc1
(b) C[C@@H](NC/C=C/c1cccc2ccccc12)c1ccccc1
(c) CCC(NCC=C(c1ccccc1)c1ccccc1)c1ccccc1 (stereo not drawn) [Compound 29, hydrochloride]
(d) O=C(CC(c1ccccc1)c1ccccc1)NCc1ccccc1 [Compound 05, N-benzyl-3,3-diphenylpropanamide]
Arrange by inhibition at 4 µM, high to low. Dear reader, please state the labels in the requested order. c, b, a, d
